Below, each entry is listed alongside its reported Specificity HEK293T (CC50/IC50).
- System: HEK293T
- protocol description: Specificity: mammalian cell cytotoxicity / inhibition of bacteria growth (CC50/IC50)
- experimental setup: IC50 vs A. baumannii HUMC1; RPMI alone

In the examples that follow, each entry is paired with its recorded Specificity HEK293T (CC50/IC50).
INSERT INTO assay_data (structure_smiles_string, measurement_name, recorded_measurement) VALUES
  ('CO[C@H]1/C=C/O[C@@]2(C)Oc3c(C)c(O)c4c(=O)c(c5oc6cc(N7CCN(CC(C)C)CC7)cc(O)c6nc-5c4c3C2=O)NC(=O)/C(C)=C\C=C\[C@H](C)[C@H](O)[C@@H](C)[C@@H](O)[C@@H](C)[C@H](OC(C)=O)[C@@H]1C', 'Specificity HEK293T (CC50/IC50)', 1.523),
  ('CO[C@H]1/C=C/O[C@@]2(C)Oc3c(C)c(O)c4c(O)c(c(/C=N/N5CCN(C)CC5)c(O)c4c3C2=O)NC(=O)/C(C)=C\C=C\[C@H](C)[C@H](O)[C@@H](C)[C@@H](O)[C@@H](C)[C@H](OC(C)=O)[C@@H]1C', 'Specificity HEK293T (CC50/IC50)', 4.538),
  ('CO[C@H]1/C=C/O[C@@]2(C)Oc3c(C)c([O-])c4c(O)c(cc(O)c4c3C2=O)NC(=O)/C(C)=C\C=C\[C@H](C)[C@H](O)[C@@H](C)[C@@H](O)[C@@H](C)[C@H](OC(C)=O)[C@@H]1C.[Na+]', 'Specificity HEK293T (CC50/IC50)', 1.348),
  ('CO[C@H]1/C=C/O[C@@]2(C)Oc3c(C)c(O)c4c(O)c(c5c(nc6cc(C)ccn65)c4c3C2=O)NC(=O)/C(C)=C\C=C\[C@H](C)[C@H](O)[C@@H](C)[C@@H](O)[C@@H](C)[C@H](OC(C)=O)[C@@H]1C', 'Specificity HEK293T (CC50/IC50)', 32.776);

Now for a further compound.
Query string: Can you share its Specificity HEK293T (CC50/IC50)? I mean this compound: `CO[C@H]1/C=C/O[C@@]2(C)Oc3c(C)c(O)c4c(O)c(c(/C=N/N5CCN(C6CCCC6)CC5)c(O)c4c3C2=O)NC(=O)/C(C)=C\C=C\[C@H](C)[C@H](O)[C@@H](C)[C@@H](O)[C@@H](C)[C@H](OC(C)=O)[C@@H]1C`
Result string: 3.413
